Assay: small-molecule microarray binders of probe aCHRDL2, primary screen, biochemical, biotinylated probe, 635/667 nm fluorescence (AID 1100)
Conditions: higher = more signal
composite z-score values, listed per item
property name: composite z-score

CCOC(=O)C[C@H]1[C@H](OC(=O)Cc2ccc3c(c2)OCO3)[C@@H](NC(=O)CC(C)C)c2cc(OCCCO)ccc2N1C(=O)c1ccc2ccccc2n1 ... -0.252
COC(=O)Cn1c(C(=O)N(C)C)cc2c1C[C@H]1CN(C(=O)c3ccccc3)[C@@](Cc3ccccc3)(C(=O)OC)[C@@H]21 ... 0.686
COc1ccc(C(=O)Nc2cccc(CN3C(=O)[C@]4(O[C@H](CC(=O)N(CCO)Cc5ccccc5)[C@@H]([Si](C)(C)c5ccc(OC)cc5)[C@@H]4C)c4ccccc43)c2)cc1 ... 0.123
CC(C)Cc1ccc(CN2CC[C@@H](NC(=O)c3ccccc3)C2)cc1 ... 0.0383
